Test: yeast display, Sf9 membrane polyspecificity reagent, FACS + sequencing; frameworks hold sequencing errors
VALUE_KIND: polyreactivity (PSR sort gate)

construct_sequence=QVHLVESGGRLVQAGGSLRLICAASGRIFFTYAMGWYRQAPGKDRELVASITGSGGSTYYADSVKGSFTISRDNAKNTVYLQMNRLKPEDTAVYYCAAALFRRQLYRKFYYWGQGTQVTVSS value_kind="polyreactivity (PSR sort gate)" endpoint_result="low polyreactivity"
construct_sequence=QVQLVESGGGLVQAGGSLRLSCAASRSNFQFYAMGWYRQAPGTERELVAVISTRGGSTYYADSVKGRFTISRDKAKNTVYLQMYSLKPEDTAVYYCAAKSVYRMGYWGQGTQVTVSS value_kind="polyreactivity (PSR sort gate)" endpoint_result="high polyreactivity"
construct_sequence=QVQLVESGGGLVQAGGILRLSCAASGRTFGLYAMGWYRQAPGKERELVASITRSGVSTTYADSVKGRFTISRDNAKNTVYLQMNSLKPVDTAVYYCNTDYTGPDGTDEYDYWGQGTQVTVSS value_kind="polyreactivity (PSR sort gate)" endpoint_result="low polyreactivity"
construct_sequence=QVQLVESGGGLVQAGGSLRLSCDASGRTFGLNAMGWYRQAPGKERDLVAAISSSGGSTYYADSVKWRFTISRDNAKNTVYLQMNRLKPEDNAVYYCAKVLYRYGNDYYYWGQGTQVTVSS value_kind="polyreactivity (PSR sort gate)" endpoint_result="high polyreactivity"
construct_sequence=QDQLVDSGGGLVQAGGSLRLSCAASGSNFCGKAMGWYRQAPGKEREFVAAITRSGGSTYYADSVKGRFTISRDNAKNTVYLQMNSLKPEDTAVYYCNRDYAFKHHRAGYGYWGQGTLVTVSS value_kind="polyreactivity (PSR sort gate)" endpoint_result="low polyreactivity"

* * *

Test: yeast display, Sf9 membrane polyspecificity reagent, FACS + sequencing; frameworks hold sequencing errors
VALUE_KIND: polyreactivity (PSR sort gate)

construct_sequence=QVQLVESGGGLVQAGGSLRLSCAASGLTFYSYAMGWYRQAPGKERELVATIRWSGGSTYYADSVKGRFTISRDNAKNTVYLQMNSLKPEDTAVYYCATSSTHSRGDEYWGQGTQVTVSS endpoint_result="low polyreactivity"
construct_sequence=QVQLVESGGGLVQAGGSLRLSCAASGFTVYSYPLGWYRQAPGKERELVAAITRSGGITYYADSVKGRFTISRDNAKNTVYLQMNSLKPEDTAVYYCNAYRGGLSSEHYYWGQGTQVTVSS endpoint_result="high polyreactivity"
construct_sequence=QVQLVESGGGLVQAGGSLRLSCAASGRIFIRAMGWYRQAPGKERELVAGITNGGITYYADSVKGRFTISRDNAKNTVYLQMISLKPEDTAVYFCNDRSSSVDYNYDYWGQGTQVTVSS endpoint_result="low polyreactivity"
construct_sequence=QVQLVESGGGLVQAGGSLRLSCAASGSTFGRNAMGWYRQAPGKERELVAAISNGGSTNYADSVKGRFTISRDNAKNTVYLQMNSLNPEDTAVYYCNRRVPYSFYSRGYYYWGQGTQVTVSS endpoint_result="high polyreactivity"
construct_sequence=QVQLVESGGGLVQAGGSLRLSCAASGSTFDWYAMGWYRQATGKETELVAAISWSDTSTYYADSVKGRFTISRDNAKNTVYLKMNSLKPEDTAVYYCNDEALYYYDSYDYWGQGTQVTVSS endpoint_result="high polyreactivity"
construct_sequence=QVQLVESGGGLVQAGGSLRISCAASGFTFVAYAMGWYRKAPGKERELVAAISRRGGTTYYADSVKGRFTISRDNAKNTVYLQMNSLKPEDTAVYYCNARGFPGKFGYWGQGTQVTVSS endpoint_result="high polyreactivity"
construct_sequence=QVQLVESGGGLVQAGGSLRLSCAASGSTFYYYTMGWYRQAPGKERELVDISWDGDSTYSADSVKGRFTISRDNAKNTVYLQMNSLKPEDTAVYYCAAADYYLPDDVSDYVDANFDYWGQGTQVTVSS endpoint_result="low polyreactivity"
construct_sequence=QLQLVESGGGLVQAGGSLRLSCAASGSIFFNYTMGWYRQAPGNERELVAAINSSGGRTNYADSVKGRFTISRDNAKNTVYLQMNSLKPEDTAVYYCAAGQSRYRELEYWGQGTQVTVSS endpoint_result="low polyreactivity"
construct_sequence=QVQLVESGGGLVQAGGSLRLSCAASGRTFNIYAMGWYRQEPGKERELVAAITNNGGRTYYADSVKGRFTISRDNAKNTVYLQMNSLKPEDTAVYYCAAASPWRYGFEYWGQGTQVTVSS endpoint_result="high polyreactivity"
construct_sequence=QVQLVESGGGLVQAGGSLRLSCAASGSIFGIYAMGWYRQAPGKERELVAAISKSGGGTYYADSVKGRFTISRDNAKNTVYLQMNSLKPEDTAVYYCNADYWQWYSYWYDYWGQGTQVTVSS endpoint_result="high polyreactivity"
construct_sequence=QVQLVESGGGLVQAGGSLRLSCAASGGIFYPYAMGGYRQAPGKERELVASIDVSDGSTYYADSVKGRFTISRDNAKNTVYLQMNSLKPEDTAVYYCAADRYYKAIDFEGDYWGQGTQVTVSS endpoint_result="low polyreactivity"

* * *

Assay: yeast display, Sf9 membrane polyspecificity reagent, FACS + sequencing; frameworks hold sequencing errors
VALUE_KIND: polyreactivity (PSR sort gate)

construct_sequence=QVQLVESGGGLVQAGGSLRLSCAASGFTFDTYAMGWYRQAPGKERELVAAISWSGGSTYYADSVKGRFTISRDNAKNTVYLQMNSLKPEDTAVYYCAAETPVDWWSTSYNYWGQGTQVTVSS value_kind="polyreactivity (PSR sort gate)" endpoint_result="high polyreactivity"
construct_sequence=QVQLVESGGGLVQAGGSLRLSCAASGRIFSYYAMGWYRQAPGKDRELVAAISRSGGRTYYADSVKGRFTISRDNAKNTVYLQMNSLNPEDTAVYYCAATFSRGYDYWGQGTQVTVSS value_kind="polyreactivity (PSR sort gate)" endpoint_result="high polyreactivity"

* * *

Assay: yeast display, Sf9 membrane polyspecificity reagent, FACS + sequencing; frameworks hold sequencing errors
VALUE_KIND: polyreactivity (PSR sort gate)

construct_sequence=QVQLVESGGGLVQAGGSLRLSCAASGSTSGLYAMGWYRQAPGKERELVATISLSGGSTYYADSVKGRFTISRDNAKNTVYLQMNSLKPEDTAVYYCNTDKYKWNYGSTYRMDYWGQGTQVTVSS endpoint_result="low polyreactivity"
construct_sequence=QVQLVESGGGLVQAGGSLRLSCAASGFIFGLYAMGWYRQAPGKETELVATISWDGGSTYYADSVKGRFTISRDNAKNTVYLQMNSLKPEDTAVYYCAATYLYRSPYVPMDYWGQGTQVTVSS endpoint_result="low polyreactivity"
construct_sequence=QVQLVESGGGLVQAGGSLRLSCAASGRIFYYYAMRWYRQAPGKERELVATISGIGGSTYYADSVKGRFTISRDNAKNTVYLHMNSLKPEDTAVYYCNADYPTSYPLLKSGFDYWGQGTQVTVSS endpoint_result="low polyreactivity"

* * *

Assay: yeast display, Sf9 membrane polyspecificity reagent, FACS + sequencing; frameworks hold sequencing errors
VALUE_KIND: polyreactivity (PSR sort gate)

construct_sequence=QVQLVESAGGLVQAGGSLRLSCAASGSTFGKYAMGWDRHAPGKERELVAAISWSGGSTYYADSVKGRFTISRDNAKNTVYLQMNSLKPEDTAVYYCTVYRYDGDYWGQGTQVTVSS value_kind="polyreactivity (PSR sort gate)" endpoint_result="high polyreactivity"
construct_sequence=QVQLVESGGGLVQAGGSLRLSCAASGRIGYYAMGWNRQAPGKERELVAAISYGGGSTYYADSVKGRFTISRDNAKNTVYLLMNSLKPEDTAVYYCAARWGKSWRGYGYWGQGTQVSVSS value_kind="polyreactivity (PSR sort gate)" endpoint_result="high polyreactivity"
construct_sequence=QVQLVESGGGLVQAGGSLRLCCAAYGSIFARNSMGWYRHAPGKERELVAVITTGGRTYYADSVKGRFTISRDNAKNTVYLQMNSMKPEDTAVYYCATRVIYGNSGGYWGKGTQVTVSS value_kind="polyreactivity (PSR sort gate)" endpoint_result="high polyreactivity"
construct_sequence=QVQLVESGGGLVQAGGSLRLSCAASGSIFIINAMGWYRQAPGKERELVAAITTSGGRTYYADSVKGRFTISRDNAKNTVYLQMNSLKPEDTAVYSCASSHYGSTGNYWGQGTQVTVSS value_kind="polyreactivity (PSR sort gate)" endpoint_result="low polyreactivity"
construct_sequence=QVQLVESGGGLVQAGGILRLSCAASGSTFDYNTMGWYRQAPGKERELVAAISESGGSTYYADSVKGRFTISRDNAKNTVYLQMNSLKPEDTAVYYCATDDFGGYFGEYDYWGQGTQVTVSS value_kind="polyreactivity (PSR sort gate)" endpoint_result="low polyreactivity"

* * *

Assay: yeast display, Sf9 membrane polyspecificity reagent, FACS + sequencing; frameworks hold sequencing errors
VALUE_KIND: polyreactivity (PSR sort gate)

construct_sequence=QVPLVESGGGLVQAGGRLRLRCAASAFTFDSYAMGWNRQAPGKERELVAAITWSGGSTYSADSVKGRFTISRDNAKNTVYLQMNSLQPEDTAVYYCNVYRYDGDYWGQGTQVPVSS value_kind="polyreactivity (PSR sort gate)" endpoint_result="high polyreactivity"
construct_sequence=QVQLVESGGRLVQAGGSLRLSCAASGITFGVYAMGWYRQAPGKERELVAAISRRGAATYYADSVKGRFTISRDNAKNTVYLQMNSLKPEDTAVYYCAAYLARRQYDYWGQGTHVTVSS value_kind="polyreactivity (PSR sort gate)" endpoint_result="high polyreactivity"
